The values you see were collected from paper PMC6631792.

assay: Average animal weight in MCF-7 mouse xenograft model; type: in vivo; conditions: nude mice with MCF-7 xenograft, i.p., day 8
# key: entry, value: Average Weight of Animals in Grams after Days 8
metricName: Average Weight of Animals in Grams after Days 8 (Grams)

[[record]]
entrysmiles = "O=C(Cn1cnc2scc(-c3cccs3)c2c1=O)NN1C(=O)CSC1=Nc1ccccc1"
valueobserved = 26.6

[[record]]
entrysmiles = "COc1cccc(C=NNC(=O)Cn2cnc3scc(-c4cccs4)c3c2=O)c1OC"
valueobserved = 23.5

[[record]]
entrysmiles = "NNC(=O)Cn1cnc2scc(-c3cccs3)c2c1=O"
valueobserved = 23.9

[[record]]
entrysmiles = "CCOC(=O)Cn1cnc2scc(-c3cccs3)c2c1=O"
valueobserved = 28.2


====

experiment: Average animal weight in MCF-7 mouse xenograft model; type: in vivo; conditions: nude mice with MCF-7 xenograft, i.p., day 0
# key: entry, value: Average Weight of Animals in Grams after Days 0
metricName: Average Weight of Animals in Grams after Days 0 (Grams)

[[record]]
compound = "NNC(=O)Cn1cnc2scc(-c3cccs3)c2c1=O"
valueobserved = 24.2

[[record]]
compound = "CC(=O)NNC(=O)Cn1cnc2scc(-c3cccs3)c2c1=O"
valueobserved = 25.4

[[record]]
compound = "COc1cccc(C2SCC(=O)N2NC(=O)Cn2cnc3scc(-c4cccs4)c3c2=O)c1OC (centres unmarked)"
valueobserved = 25.3

[[record]]
compound = "Cc1cc(=O)n(C(=O)Cn2cnc3scc(-c4cccs4)c3c2=O)[nH]1"
valueobserved = 27.4

[[record]]
compound = "NC1=CC(N)N(NC(=O)Cn2cnc3scc(-c4cccs4)c3c2=O)C=C1 (centres unmarked)"
valueobserved = 26.1


====

experiment: Average animal weight in MCF-7 mouse xenograft model; format: in vivo; conditions: nude mice with MCF-7 xenograft, i.p., day 2
# key: entry, value: Average Weight of Animals in Grams after Days 2
metricName: Average Weight of Animals in Grams after Days 2

[[record]]
molecule = "COc1cccc(C2SCC(=O)N2NC(=O)Cn2cnc3scc(-c4cccs4)c3c2=O)c1OC (stereo not shown) [Compound 8]"
valueobserved = "25.3 Grams"

[[record]]
molecule = "O=C(Cn1cnc2scc(-c3cccs3)c2c1=O)NNC(=S)Nc1ccccc1 [Compound 10]"
valueobserved = "24.9 Grams"

[[record]]
molecule = "O=C(Cn1cnc2scc(-c3cccs3)c2c1=O)NN1C(=O)CSC1=Nc1ccccc1 [Compound 11]"
valueobserved = "26.6 Grams"

[[record]]
molecule = "NNC(=O)Cn1cnc2scc(-c3cccs3)c2c1=O [Compound 4]"
valueobserved = "24.2 Grams"


====

Assay: Average animal weight in MCF-7 mouse xenograft model
Type: in vivo
Conditions: nude mice with MCF-7 xenograft, i.p., day 14
Description: “In this work, MCF-7 mouse xenograft model was used. The animal protocol was approved by the Institutional Animal Use Ethics and Care Committee of the University of Alabama at Birmingham (50-01-05-08B). […] During the experiment, animals were checked periodically and the percentages of tumor growth, as well as animal weights, were recorded. Every 48 h, the size of the tumor was recorded by measuring two perpendicular diameters of the tumor and tumor volume was calculated according to Wang et al. [46]”. […]
# key: entry, value: Average Weight of Animals in Grams after Days 14
metricName: Average Weight of Animals in Grams after Days 14 (Grams)

[[record]]
compound = "NC1=CC(N)N(NC(=O)Cn2cnc3scc(-c4cccs4)c3c2=O)C=C1 (stereo not drawn)"
valueobserved = 25.6

[[record]]
compound = "COc1cccc(C2SCC(=O)N2NC(=O)Cn2cnc3scc(-c4cccs4)c3c2=O)c1OC (stereo not drawn)"
valueobserved = 24.8

[[record]]
compound = "O=C(Cn1cnc2scc(-c3cccs3)c2c1=O)NN1C(=O)CSC1=Nc1ccccc1"
valueobserved = 26.3

[[record]]
compound = "NNC(=O)Cn1cnc2scc(-c3cccs3)c2c1=O"
valueobserved = 23.7

[[record]]
compound = "COc1cccc(C=NNC(=O)Cn2cnc3scc(-c4cccs4)c3c2=O)c1OC"
valueobserved = 23.4

[[record]]
compound = "O=C(Cn1cnc2scc(-c3cccs3)c2c1=O)NN=Cc1ccc(Cl)cc1"
valueobserved = 27.1

[[record]]
compound = "O=c1oc(Cn2cnc3scc(-c4cccs4)c3c2=O)nc2ccccc12"
valueobserved = 22.7

[[record]]
compound = "CC(=O)NNC(=O)Cn1cnc2scc(-c3cccs3)c2c1=O"
valueobserved = 25.3

[[record]]
compound = "O=C(Cn1cnc2scc(-c3cccs3)c2c1=O)NNC(=S)Nc1ccccc1"
valueobserved = 24.4

